Here, each record is paired with measured AUC 0-t data.
TEST DESCRIPTION: PK study of SM components in plasma of AIA rats by UPLC-MS/MS (MG vs MPS group)
EXPERIMENTAL CONDITIONS: MPS group: AIA rats, oral PS 9.8 g crude drug/kg/day 21 days, then oral SM 39.2 g crude drug/kg; plasma; mean ± SEM
The reply should contain only the number, in ng·h/mL.

Input: Give its AUC 0-t value. Item: CCN1C[C@]2(COC)[C@H](O)C[C@H](OC)[C@@]34[C@@H]5C[C@@]6(O)[C@H](OC(=O)c7ccccc7)[C@@H]5[C@@](O)([C@@H]([C@H](OC)[C@H]23)[C@@H]14)[C@@H](O)[C@@H]6OC
Output: 1.064

Input: Form field: reported AUC 0-t of CCN1C[C@]2(COC)CC[C@H](OC)[C@]34C1[C@H](C[C@H]23)[C@@]1(O)C[C@H](OC)[C@H]2C[C@@H]4[C@@H]1[C@H]2O
Output: 22.338

Input: Which AUC 0-t value belongs to C[C@]12C[C@@H](O)[C@@H]3C[C@@]1(O[C@@H]1O[C@H](CO)[C@@H](O)[C@H](O)[C@H]1O)[C@@]3(COC(=O)c1ccccc1)C(=O)O2 ?
Output: 644.268

Input: Look at this molecule and give its reported AUC 0-t. O=C1C[C@@H](c2ccc(O)cc2)Oc2cc(O)ccc21
Output: 47.195

---

Below, each of the compounds is paired with its reported AUC 0-∞ value.
TEST DESCRIPTION: PK study of SM components in plasma of AIA rats by UPLC-MS/MS (MG vs MPS group)
EXPERIMENTAL CONDITIONS: MG group: AIA rats, saline 21 days, then oral SM 39.2 g crude drug/kg; plasma; mean ± SEM
Reply numerically in ng·h/mL, unit not repeated.

Input: Any idea what its AUC 0-∞ is? The compound is O=C1C[C@@H](c2ccc(O)cc2)Oc2cc(O)ccc21
Output: 49.404

Input: Which AUC 0-∞ is reported for this compound? CCN1C[C@]2(COC)CC[C@H](O)[C@]34C1[C@H]([C@H](OC)[C@H]23)[C@@]1(O)C[C@H](OC)[C@H]2C[C@@H]4[C@@H]1[C@H]2O
Output: 8.058

---

TEST DESCRIPTION: PK study of SM components in plasma of AIA rats by UPLC-MS/MS (MG vs MPS group)
EXPERIMENTAL CONDITIONS: Sprague-Dawley, rat, plasma, po, 39.2 g/kg/day, AUC 0-∞, MPS group: AIA rats, oral PS 9.8 g crude drug/kg/day 21 days, then oral SM 39.2 g crude drug/kg; plasma; mean ± SEM
AUC(0-inf) values by entry
Dear colleague, please return just the value in ng·h/mL, with no unit written.

Input: // lookup AUC(0-inf) for CC1(C)[C@@H](O[C@H]2O[C@H](C(=O)O)[C@@H](O)[C@H](O)[C@H]2O[C@@H]2O[C@H](C(=O)O)[C@@H](O)[C@H](O)[C@H]2O)CC[C@]2(C)[C@H]3C(=O)C=C4[C@@H]5C[C@@](C)(C(=O)O)CC[C@]5(C)CC[C@@]4(C)[C@]3(C)CC[C@@H]12 [Glycyrrhizic acid]
Output: 27400

Input: Look up AUC(0-inf) for this molecule: O=C(/C=C/c1ccc(O)cc1)c1ccc(O)cc1O [Isoliquiritigenin]
Output: 10.5

Input: For the molecule CC1(C)[C@@H](O)CC[C@]2(C)[C@H]3C(=O)C=C4[C@@H]5C[C@@](C)(C(=O)O)CC[C@]5(C)CC[C@@]4(C)[C@]3(C)CC[C@@H]12 [Glycyrrhetinic acid] , what AUC(0-inf) is on record?
Output: 34500

Input: Request the reported AUC(0-inf) associated with COc1ccc(-c2coc3cc(O)ccc3c2=O)cc1 [Formononetin]
Output: 13.6
